system: rCaCH; assay: Cardio tox rCaCH; conditions: read-out: Cardio tox rCaCH (pIC50) (converted)

- Molecule: "Cc1c(-c2ccc3nc(-c4cccc(OC(F)(F)F)c4)cn3c2)[nH]c2ccccc2c1=O [Compound 5]"
  IC50: "> 10 µM"
- Molecule: "Cc1c(-c2ccc3cc(-c4cccc(OC(F)(F)F)c4)nn3c2)[nH]c2ccccc2c1=O [Compound 1]"
  IC50: "3.5 µM"
- Molecule: "Cc1c(-c2ccc3cc(-c4cccc(OC(F)(F)F)c4)cn3c2)[nH]c2ccccc2c1=O [Compound 3]"
  IC50: "> 10 µM"
- Molecule: "Cc1c(-c2ccc3nc(Cc4ccc(OC(F)(F)F)cc4)cn3c2)[nH]c2ccccc2c1=O [Compound 2]"
  IC50: "> 10 µM"

The reported numbers originate from patent US20220372033A1.
